Test system: SR leukemia
Assay: NCI tumour cell line growth inhibition, 48 h
Measured Parameter: TGI (µM)
Dear colleague, please return just the value in µM, with no unit written.

Output TGI of CCC(CC)c1nc(Nc2ccc(C(=O)OC)cc2)c2ccccc2n1
26.7

Output TGI of c1ccc2c(CN3CCN(Cc4c[nH]c5ccccc45)CC3)c[nH]c2c1
44.8

Output TGI of COc1ccc2sc3cccc(NCCN(C)C)c3c(=O)c2c1
5.86

Output TGI of CN(C)CCCC1c2ccccc2Oc2ccc(C(F)(F)F)cc21 (centres undefined)
24.5

Output TGI of NC1=CC(=O)c2cccnc2C1=O
3.69

Output TGI of c1ccc(N2N=C(c3cccc(Nc4ccncc4)c3)CC2c2ccc3c(c2)OCO3)cc1 (centres undefined)
2.89

Output TGI of CC(=O)N1N=C(c2ccc3ccccc3c2O)CC1c1cccs1 (centres undefined)
14.3

Output TGI of CCCCc1ccc(Nc2nc(Cl)c3ncn(COCCOC(C)=O)c3n2)cc1
53.8

Output TGI of CCCCCCCCOCC(O)COC(C)C (centres undefined)
40.2

Output TGI of CCOC(=O)C1=C(C)N=c2s/c(=C\c3ccccc3O)c(=O)n2C1c1ccc(OC)c2ccccc12 (centres undefined)
58.8

Output TGI of O=[N+]([O-])c1ccc(C2CC(c3ccccc3Cl)=Nc3ccccc3S2)cc1 (centres undefined)
5.27

Output TGI of NC(=S)N/N=C/c1nccc2ccccc12
11.5

Output TGI of CCOC(=O)C1SC(=Nc2cccc(Cl)c2C)N=C1C (centres undefined)
61.2

Output TGI of CC12OOC(c3ccccc31)c1c2ccc2ccccc12 (centres undefined)
3.24

Output TGI of CCOC(=O)[C@@H](C)C[C@H](Cc1ccccc1)NC(=O)c1nc([C@@H](C[C@H](C(C)C)N(C)C(=O)[C@@H](NC(=O)[C@H]2CCCCN2C)C(C)C)OC(C)=O)sc1CCOCc1ccccc1
1.87

Output TGI of COc1cc(/C=C2/SC(c3ccccc3)N(Cc3ccccc3)C2=O)cc(OC)c1OC (centres undefined)
45.1

Output TGI of O=[N+]([O-])c1ccc2nc(Cl)n[n+]([O-])c2c1
4.93

Output TGI of COc1cc(=O)c2c(O)c3c(O)oc(C)cc3c(OC)c2c1
64.2

###

Tested on: TK-10 renal
Experiment: NCI tumour cell line growth inhibition, 48 h
Measured Parameter: TGI (µM)
Dear colleague, please return just the value in µM, with no unit written.

Output TGI of CN(C)CCCC1c2ccccc2Oc2ccc(C(F)(F)F)cc21 (stereo not given)
29.3

Output TGI of COc1cc(/C=C2\C[C@H]3[C@@H]4CC=C5C[C@@H](O)CC[C@]5(C)[C@H]4CC[C@]3(C)[C@H]2O)ccc1OCCN1CCCC1
24.3

Output TGI of CC1=NN(c2nc(N)nc(CBr)n2)C(C)(C)C1
14.9

Output TGI of O=C(/C=C/c1ccco1)c1cc(F)c(Cl)cc1Cl
90.1

###

Test system: OVCAR-3 ovarian
Assay: NCI tumour cell line growth inhibition, 48 h
Each entry gets False if its TGI stays under 50 µM, and True if its TGI is 50 µM or above.

# check: TGI of CCOc1ccc(N/C(=C(/C(Cl)=C(/Cl)Nc2ccccc2)[N+](=O)[O-])n2nnc3ccccc32)cc1 is greater than or equal to 50 µM
True

# check: TGI of COc1ccc(OC)c(CSc2ccc(OC)c(OC)c2)c1 is greater than or equal to 50 µM
True

# check: TGI of COc1ccc(N=Cc2c(O)ccc3c2oc2cc(Cl)c(O)c(Cl)c23)cc1 is greater than or equal to 50 µM
False

# check: TGI of CCCCCCCCOCC(O)COC(C)C (centres undefined) is greater than or equal to 50 µM
False

# check: TGI of COC(=O)CCC(NC(=S)N/N=C/c1ccccn1)C(=O)OC (centres undefined) is greater than or equal to 50 µM
True

# check: TGI of c1ccc([CH2][Sn]([CH2]c2ccccc2)([O]c2cccc3cccnc23)[O]c2cccc3cccnc23)cc1 is greater than or equal to 50 µM
False

# check: TGI of O=C(CC(CC(=O)Oc1c(Br)cc(Br)cc1C(=O)O)C(=O)Oc1c(Br)cc(Br)cc1C(=O)O)Oc1c(Br)cc(Br)cc1C(=O)O is greater than or equal to 50 µM
True

# check: TGI of Cn1c(NNc2ccccc2)cc(=O)[nH]c1=O is greater than or equal to 50 µM
True

# check: TGI of COc1cc(/C=C2\C[C@H]3[C@@H]4CC=C5C[C@@H](O)CC[C@]5(C)[C@H]4CC[C@]3(C)[C@H]2O)ccc1OCCN1CCCC1 is greater than or equal to 50 µM
False

# check: TGI of O=C(c1ccccc1)c1ccc(N2C(=O)/C(=C/Cc3ccco3)N=C2c2ccccc2)c(N2C(=O)/C(=C/Cc3ccco3)N=C2c2ccccc2)c1 is greater than or equal to 50 µM
False

# check: TGI of COc1ccc(C(CCC(C)=O)C(=O)O)cc1OC (centres undefined) is greater than or equal to 50 µM
True

# check: TGI of Cc1cc([N+](=O)[O-])ccc1Sc1c2ccccc2nc2cc(Cl)ccc12 is greater than or equal to 50 µM
True

# check: TGI of O=C1c2[nH]cc(CNC3CN4CCC3CC4)c2C(=O)c2c1c(O)c1ccccc1c2O (centres undefined) is greater than or equal to 50 µM
False

# check: TGI of C[Si](C)(C)C#Cc1cc(-c2nc3ccccc3s2)ccc1N is greater than or equal to 50 µM
False

# check: TGI of C=C=C(C(=O)OC)S(=O)c1ccccc1[N+](=O)[O-] (centres undefined) is greater than or equal to 50 µM
True

# check: TGI of CCOC(=O)CCC(NC(=O)Cc1ccc(Nc2nc3ccccc3nc2-c2cccs2)cc1)C(=O)OCC (centres undefined) is greater than or equal to 50 µM
True

# check: TGI of CC[C@@H]1ON(C)[C@H]2CN(C)C(=O)[C@@H]12 is greater than or equal to 50 µM
True

# check: TGI of O=C1CC(c2c(-c3ccccc3)[nH]c3ccccc23)C(=O)N1 (centres undefined) is greater than or equal to 50 µM
True

###

Test system: CCRF-CEM leukemia
Test: NCI tumour cell line growth inhibition, 48 h; in the data active = GI50 below about 0.43 µM; inactive = the rest
Permitted responses: yes for active, no for inactive

Status in this test for COc1cccc(CCC2CCCN(c3cc(C)nc(N)n3)C2)c1 (stereo not drawn) ?
yes

Status in this test for CCOC(=O)c1ccccc1OC(=O)NNc1ccccc1 ?
no

Status in this test for CC1(C)N=C(N)N=C(N)N1c1ccc(CCCCc2ccccc2)c(Cl)c1 ?
yes

Status in this test for C=C(C)[C@@H]1CC[C@]2(COCCC#N)CC[C@]3(C)[C@H](CC[C@@H]4[C@@](C)(CCCNCCC#N)[C@H](C(=C)C)CC[C@]43C)[C@@H]12 ?
no

Status in this test for C[C@]12CCc3nc(Nc4cccc(O)c4)sc3C1=CC[C@@H]1[C@@H]2CC[C@]2(C)/C(=N\NC(N)=S)CC[C@@H]12 ?
no

Status in this test for NC1=CC(=O)c2cccnc2C1=O ?
no

Status in this test for CCOC(=O)[C@@H](C)C[C@H](Cc1ccccc1)NC(=O)c1nc([C@@H](C[C@H](C(C)C)N(C)C(=O)[C@@H](NC(=O)[C@H]2CCCCN2C)C(C)C)OC(C)=O)sc1CCOCc1ccccc1 ?
yes

Status in this test for Nc1ccccc1NC(=O)c1ccc(CNc2nccc(-c3cccnc3)n2)cc1 ?
no

###

Tested on: M14 melanoma
Experiment: NCI tumour cell line growth inhibition, 48 h; in the data active = GI50 below about 0.43 µM; inactive = the rest
Permitted responses: 1 (yes) (active), 0 (no) (inactive)

Status in this test for NCCCNc1nc2ccccc2c2c(=O)c3cc(F)cc(F)c3sc12 ?
0 (no)

Status in this test for CSC1=Nc2c(c(C)c(-c3ccccc3)n2CCCN2CCCCC2)C2=NC(=O)C[C@H](C)N12 ?
0 (no)

Status in this test for CCOC(=O)[C@@H](C)C[C@H](Cc1ccccc1)NC(=O)c1nc([C@@H](C[C@H](C(C)C)N(C)C(=O)[C@@H](NC(=O)[C@H]2CCCCN2C)C(C)C)OC(C)=O)sc1CCOCc1ccccc1 ?
1 (yes)

Status in this test for CC[C@H](NC(=O)[C@H]1CCCCN1C)C(=O)N(C)[C@H](C[C@@H](OC(C)=O)c1nc(C(=O)N[C@@H](Cc2ccccc2)C[C@H](C)C(=O)O)cs1)C(C)C ?
1 (yes)

Status in this test for COc1cc(/C=C2\C[C@H]3[C@@H]4CC=C5C[C@@H](O)CC[C@]5(C)[C@H]4CC[C@]3(C)[C@H]2O)ccc1OCCN1CCCC1 ?
0 (no)

Status in this test for Cc1cccc(-c2[nH]ncc2-c2ccc3ncccc3n2)n1 ?
0 (no)

Status in this test for CSc1ccc(-c2ccccc(=O)c2O)cc1 ?
1 (yes)

Status in this test for CCC(CC)c1nc(Nc2ccc(C(=O)OC)cc2)c2ccccc2n1 ?
0 (no)

Status in this test for COc1ccc(N=Cc2c(O)ccc3c2oc2cc(Cl)c(O)c(Cl)c23)cc1 ?
0 (no)

Status in this test for NS(=O)(=O)OCC1OC(n2cnc3cncnc32)C(O)C1O (configuration not stated) ?
1 (yes)

Status in this test for CO/C=C/C(=O)c1cc2cnc3c(=N)cc(NC(=O)C(C)C)c([nH]1)c23 ?
1 (yes)

Status in this test for O=C(c1ccco1)c1nc2cc(C(F)(F)F)ccc2nc1C(F)(F)F ?
0 (no)
